target: isomerase (Mus musculus (Mouse), UniProt Q91ZQ5); experiment: In vivo murine isomerase assay (recovery of 11-cis-retinal after photobleaching); set-up: species or system CD-1 (albino) male mice; conditions: mouse, po, 1 mg/Kg oral gavage, 24 h; negative numbers leveled to 0%
Sequence (Q91ZQ5 whole entry): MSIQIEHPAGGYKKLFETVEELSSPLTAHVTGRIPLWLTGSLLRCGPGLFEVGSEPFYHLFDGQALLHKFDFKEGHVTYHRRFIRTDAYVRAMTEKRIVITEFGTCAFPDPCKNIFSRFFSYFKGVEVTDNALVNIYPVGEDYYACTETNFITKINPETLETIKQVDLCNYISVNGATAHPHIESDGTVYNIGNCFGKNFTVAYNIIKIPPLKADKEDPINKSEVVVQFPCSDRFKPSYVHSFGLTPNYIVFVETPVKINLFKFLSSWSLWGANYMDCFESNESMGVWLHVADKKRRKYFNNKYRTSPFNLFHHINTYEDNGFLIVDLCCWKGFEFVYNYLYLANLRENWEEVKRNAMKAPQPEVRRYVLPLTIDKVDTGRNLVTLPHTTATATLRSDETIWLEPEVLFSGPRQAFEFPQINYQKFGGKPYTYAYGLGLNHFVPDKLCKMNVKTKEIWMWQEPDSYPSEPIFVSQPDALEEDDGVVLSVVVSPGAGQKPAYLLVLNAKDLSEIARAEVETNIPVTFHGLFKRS
result_type: inhibition at 1 mg/kg (%)

* NCCCc1cccc(/C=C/c2c(C(F)(F)F)cccc2C(F)(F)F)c1 | 0

P. CC1=C(/C=C/c2cccc(OCCN)c2)C(C)(C)CCC1
Q. NCCCc1cccc(/C=C/c2c(Cl)cccc2Cl)c1
R. CC1=C(/C=C/c2cccc(C(O)CCN)c2)C(C)(C)CCC1 (stereo not shown)
Lookup: List by increasing inhibition at 1 mg/kg. Give your ranking as a list of the labels in the requested order.
Found: P, Q, R
(P: 0%, Q: 16%, R: 96%)

----------
target: isomerase (Mus musculus (Mouse), UniProt Q91ZQ5); experiment: In vivo murine isomerase assay (recovery of 11-cis-retinal after photobleaching); parameters: species or system CD-1 (albino) male mice; details: mouse, po, 5 mg/kg oral gavage, 24 h; negative numbers leveled to 0%
result_type: inhibition at 5 mg/kg (%)

Examples from the recorded data:
* Cc1cccc(C)c1/C=C/c1cccc(CCCN)c1 | 58
* NCCCc1cccc(/C=C/c2c(C(F)(F)F)cccc2C(F)(F)F)c1 | 84

A. CC(C)(O)/C=C/c1cccc(CCCN)c1
B. NCCCc1cccc(/C=C/c2c(Cl)cccc2Cl)c1
C. CC1=C(/C=C/c2cccc(C(O)C(C)CN)c2)C(C)(C)CCC1 (stereo not drawn)
D. NC[C@@H](O)Cc1cccc(/C=C/c2c(Cl)cccc2Cl)c1
Lookup: Rank descending by inhibition at 5 mg/kg. Give your ranking as a list of the labels in the requested order.
Found: D, B, C, A
(D: 85%, B: 54%, C: 7%, A: 0%)

P. CC1=C(/C=C/c2cccc(C(N)CCN)c2)C(C)(C)CCC1 (stereo not drawn)
Q. NC[C@H](O)Cc1cccc(/C=C/c2c(Cl)cccc2Cl)c1
R. CCCC(O)(/C=C/c1cccc(CCCN)c1)CCC
S. CC1=C(/C=C/c2cccc(C(F)CCN)c2)C(C)(C)CCC1 (stereo not drawn)
Lookup: List by increasing inhibition at 5 mg/kg. Give your ranking as a list of the labels in the requested order.
Found: P, R, Q, S

A. CC1=C(/C=C/c2cccc(OCCN)c2)C(C)(C)CCC1
B. NCCC(O)c1cccc(/C=C/C2(O)CCCCC2)c1 (stereo not drawn)
Lookup: In the pair A and B , the larger recorded inhibition at 5 mg/kg belongs to which? // output: label of the selected item
Found: A

----------
target: isomerase (Mus musculus (Mouse)); assay: In vivo murine isomerase assay (recovery of 11-cis-retinal after photobleaching); parameters: species or system CD-1 (albino) male mice; conditions: mouse, po, 1 mg/Kg oral gavage, 4 h; negative numbers leveled to 0%
result_type: inhibition at 1 mg/kg (%)

P. CC1=C(/C=C/c2cccc(C(O)CCN)c2)C(C)(C)CCC1 (centres unmarked)
Q. CC1=C(/C=C/c2cccc(C(N)CCN)c2)C(C)(C)CCC1 (centres unmarked)
R. CCCC(O)(/C=C/c1cccc(CCCN)c1)CCC
S. NCCCc1cccc(/C=C/c2c(C(F)(F)F)cccc2C(F)(F)F)c1
Lookup: Provide the items ranked by increasing inhibition at 1 mg/kg. Give your ranking as a list of the labels in the requested order.
Found: Q, S, R, P
(Q: 0%, S: 10%, R: 55%, P: 89%)
